These data points were gathered from patent US8026218.

Consider the following binders and their measured Ki readings.
Target: T1, rat µ opioid receptor (rat, UniProt P33535 1-398)
T1 construct: whole, on cells; membrane preparations of the transfected cells were used; also called rMOR; MOR
T1 sequence (P33535 whole entry): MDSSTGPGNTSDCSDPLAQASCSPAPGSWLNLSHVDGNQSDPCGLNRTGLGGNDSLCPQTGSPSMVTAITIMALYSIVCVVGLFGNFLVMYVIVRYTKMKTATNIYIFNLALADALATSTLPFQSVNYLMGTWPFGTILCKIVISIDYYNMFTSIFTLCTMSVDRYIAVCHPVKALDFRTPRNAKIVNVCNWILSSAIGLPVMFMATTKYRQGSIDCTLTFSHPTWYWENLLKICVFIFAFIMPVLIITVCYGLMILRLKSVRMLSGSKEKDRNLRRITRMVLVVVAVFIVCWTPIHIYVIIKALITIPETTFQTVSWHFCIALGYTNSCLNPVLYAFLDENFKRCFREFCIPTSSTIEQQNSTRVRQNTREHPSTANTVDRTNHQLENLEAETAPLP
Assay: competition vs [3H]DAMGO, rMOR cell membranes
Bridge positions count the residues as written; N and C are the ends. Square brackets hold non-standard residues; d marks the D form. Ends that are not written are not given here. * marks the point of attachment. NH(3,5-(CF3)2-benzyl) = FC(F)(F)c1cc(CN*)cc(C(F)(F)F)c1; Nle = CCCC[C@H](N)C(=O)O
readout: Ki (nM)

>>> reported("Y[dC]GF[dC]PLW-{NH(3,5-(CF3)2-benzyl)} (disulfide 2-5, cyclic; also called TY037; [D-Cys2, D-Cys5]TY027) [Tyr[DCysGlyPheDCys]ProLeuTrpNHBn(CF3)2]")
52
>>> reported("Y[dC]GF[Nle]P[dC]W-{NH(3,5-(CF3)2-benzyl)} (disulfide 2-7, cyclic; also called TY038; [D-Cys2, D-Cys7]TY027) [Tyr[DCysGlyPheNleProDCys]TrpNHBn(CF3)2]")
160
>>> reported("Y[dC]GFCPLW-{NH(3,5-(CF3)2-benzyl)} (disulfide 2-5, cyclic; also called TY039; [D-Cys2, Cys5]TY027) [Tyr[DCysGlyPheCys]ProLeuTrpNHBn(CF3)2]")
200
>>> reported("Y[dC]GF[Nle]PCW-{NH(3,5-(CF3)2-benzyl)} (disulfide 2-7, cyclic; also called TY035; [D-Cys2, Cys7]TY027) [Tyr[DCysGlyPheNleProCys]TrpNHBn(CF3)2]")
79
